- EXPERIMENTAL TARGET: TLR7 receptor (Homo sapiens)
- Construct: PBL contain as a subpopulation plasmacytoid dendritic cells which are the natural interferon producing cells; endogenous in cells
- Sequence (Q9NYK1 27-1049): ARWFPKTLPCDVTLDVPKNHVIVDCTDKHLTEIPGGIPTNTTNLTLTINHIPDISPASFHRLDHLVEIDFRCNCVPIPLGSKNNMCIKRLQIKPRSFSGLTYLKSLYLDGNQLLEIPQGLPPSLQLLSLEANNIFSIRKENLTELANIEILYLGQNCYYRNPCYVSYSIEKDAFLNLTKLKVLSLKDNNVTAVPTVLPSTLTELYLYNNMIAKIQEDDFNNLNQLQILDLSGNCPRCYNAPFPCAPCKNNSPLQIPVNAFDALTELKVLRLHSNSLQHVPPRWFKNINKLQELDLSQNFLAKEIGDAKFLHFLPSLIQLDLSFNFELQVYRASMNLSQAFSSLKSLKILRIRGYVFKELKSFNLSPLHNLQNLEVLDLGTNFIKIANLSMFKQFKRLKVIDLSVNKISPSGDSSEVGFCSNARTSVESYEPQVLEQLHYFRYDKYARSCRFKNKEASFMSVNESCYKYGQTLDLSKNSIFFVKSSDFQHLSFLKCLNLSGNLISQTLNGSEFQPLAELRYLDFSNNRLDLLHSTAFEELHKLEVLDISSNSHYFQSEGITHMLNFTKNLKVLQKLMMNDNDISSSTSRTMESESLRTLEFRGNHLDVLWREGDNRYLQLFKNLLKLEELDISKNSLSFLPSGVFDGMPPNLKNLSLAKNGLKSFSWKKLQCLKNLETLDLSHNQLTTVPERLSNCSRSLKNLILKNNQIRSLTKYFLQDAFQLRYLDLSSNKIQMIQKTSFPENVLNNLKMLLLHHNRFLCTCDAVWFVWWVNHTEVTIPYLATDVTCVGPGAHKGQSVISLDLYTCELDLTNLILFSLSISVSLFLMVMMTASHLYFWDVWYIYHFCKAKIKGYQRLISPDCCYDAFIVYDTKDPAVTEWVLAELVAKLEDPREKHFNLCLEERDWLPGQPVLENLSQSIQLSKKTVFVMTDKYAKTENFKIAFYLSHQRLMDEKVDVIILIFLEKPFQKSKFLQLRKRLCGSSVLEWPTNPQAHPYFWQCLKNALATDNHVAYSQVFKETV
- TEST METHOD NOTES: PBL/HCV replicon bioassay
- RECORDED CONDITIONS: concentration applied to PBL (24 h) giving 50% reduction of HCV replicon levels (luciferase) after transfer of PBL culture medium to Huh-7 replicon cells (48 h)
pEC50: −log10 of the molar value.
MEASUREMENT TYPE: pEC50

{"columns": ["COMPOUND", "pEC50"],
 "data": [
  ["CC(C)c1cc2c([nH]c(=O)n2Cc2ccccc2)c(N)n1 [Example 24]", 5.80],
  ["Cc1cc2c([nH]c(=O)n2Cc2cccc(C(F)(F)F)c2)c(N)n1 [Example 25]", 6.00],
  ["COCCOc1cc2c([nH]c(=O)n2Cc2ccccc2)c(N)n1 [Example 17]", 6.02],
  ["COCCNc1cc2c([nH]c(=O)n2Cc2ccccc2)c(N)n1 [Example 49]", 5.66],
  ["N#Cc1cc2c([nH]c(=O)n2Cc2ccccc2)c(N)n1 [Example 39]", 5.66]
]}

(P) Nc1nc(C2CC2)cc2c1[nH]c(=O)n2Cc1ccccc1 [Example 1]
(Q) Nc1nc2c(c3c1[nH]c(=O)n3Cc1ccccc1)CCC2 [Example 31]
(R) Nc1nc(-c2ccccn2)cc2c1[nH]c(=O)n2Cc1ccccc1 [Example 32]
Exercise: Sort low-to-high on pEC50, please. Please respond by ranking the labels in the order requested.
Key: Q, R, P
(Q: 5.49, R: 5.77, P: 6.03)
